Value source: PubChem BioAssay (NCATS)

Test system: SKOV3
Experiment: Primary qHTS to identify gynecologic anti-cancer compounds using libraries of approved drugs and bioactive compounds (AID 1345084); note: nearly all actives have a fitted effect of over 55% in size
Conditions: Gynecologic cancer cell panel viability, ATPlite luminescence, 48 h; series mostly up to 57.5 µM
Records with an inconclusive call do not appear. Activity calls are given as the source filed them. Calls come from the whole dose curve; as a rule, active = well fitted cell-killing curve with a large enough effect; inconclusive = small, poorly fitted or top-dose-only effect, or effect the other way; inactive = flat fitted curve, though single readings scatter.
A correct response names exactly one class from active, inactive

Solved cases below.
>>> print(df.to_string())
                                   compound  class_name
0  O=C(O)c1cn(C2CC2)c2cc(N3C[C@@H]4C[C@H]3CN4)c(F)cc2c1=O    inactive
1  O=C1NC(Cc2c[nH]c3ccccc23)C(=O)NC1Cc1cnc[nH]1 (stereo not drawn)    inactive
2  C/C=C/C=C/C=C/C(=O)OC1C=C(C=O)C(O)(C(=O)O)C2(C)CCCC(C)(C)C12 (stereo not drawn)    inactive
3  C=CC(C)(O)C(O)CC1C(C)(O)C(O)C(O)C2C(C)(C)CCCC21C (stereo not drawn)    inactive

Exercise: Would you mind telling me which call this test gave CC(=O)OC1C(O)CC2(C)C(CCC(C)C23Cc2c(O)cc(CO)c(C=O)c2O3)C1(C)C (stereo not drawn) ?
Key: inactive

Exercise: Would you mind telling me which call this test gave C=C(C)C(=O)OC1C(OC(C)=O)/C(C=O)=C\CC/C(CO)=C/C2OC(=O)C(=C)C21 (stereo not drawn) ?
Key: inactive

Exercise: Would you mind telling me which call this test gave NC[C@@](O)(c1ccc(Cl)cc1)c1ccc(-c2cn[nH]c2)cc1 ?
Key: active

Exercise: Would you mind telling me which call this test gave C[C@@]12C[C@]3(O)O[C@H](O1)[C@]1(COC(=O)c4ccccc4)[C@H]3C[C@@]12O[C@@H]1O[C@H](CO)[C@@H](O)[C@H](O)[C@H]1O ?
Key: inactive

----------
Test system: HaCat
Assay: Cytotoxic Profiling of Annotated Libraries Using Quantitative High-Throughput Screening (AID 1296008); note: nearly all actives have a fitted effect of over 60% in size
Conditions: Five cell lines viability, CellTiter-Glo ATP luminescence, 48-72 h
Results filed as inconclusive are left out. Calls of active or inactive are those of the source. Calls follow the shape of the dose curve; as a rule, active = well fitted inhibition curve with a large enough effect; inconclusive = small, poorly fitted or top-dose-only effect; inactive = flat fitted curve, though single readings scatter.
A correct response names exactly one class from 1 for active, -1 for inactive

Molecule	Class name
CCc1cnn2c(NCc3ccc[n+]([O-])c3)cc(N3CCCCC3CCO)nc12 (stereo not drawn)	1
O=C(O[C@H]1[C@@H]2C=CO[C@@H](O[C@@H]3O[C@H](CO)[C@@H](O)[C@H](O)[C@H]3O)[C@@H]2[C@@]2(CO)O[C@@H]12)c1ccccc1	-1
CC[C@H](C)[C@H](NC(=O)[C@H]([C@@H](C)CC)N(C)C(C)=O)C(=O)N[C@H](C(=O)N[C@@H](CC(C)C)C(=O)[C@@]1(C)CO1)[C@@H](C)O	1

Exercise: Would you mind telling me which call this test gave CCCCNc1ncc2c(-c3ccc(CN4CCN(C)CC4)cc3)cn(C3CCC(O)CC3)c2n1 (stereo not drawn) ?
Key: 1

Exercise: Would you mind telling me which call this test gave CN1CCN(C(=O)c2ccc3cc(CCNc4ncnc5ccc(C#N)cc45)ccc3c2)CC1 ?
Key: -1

Exercise: Would you mind telling me which call this test gave Cc1ccc(-c2ccc3ncc4c(c3n2)n(C2CCN(C(=O)[C@H](C)O)CC2)c(=O)n4C)cn1 ?
Key: 1

Exercise: Would you mind telling me which call this test gave Nc1ccc(-c2cccc3c(=O)cc(N4CCOCC4)oc23)cc1 ?
Key: 1

Exercise: Would you mind telling me which call this test gave CN(C)C(=O)NC1CCC(CCN2CCN(c3cccc(Cl)c3Cl)CC2)CC1 (stereo not drawn) ?
Key: -1

Exercise: Would you mind telling me which call this test gave C#CCN(Cc1cc2c(=O)n(C)c(CN3CCN(C)CC3)nc2cc1Cl)c1ccc(C(=O)NCc2cccnc2)cc1 ?
Key: 1

Exercise: Would you mind telling me which call this test gave COc1ncc(Nc2ncc([C@@H](C)N3CCN(S(C)(=O)=O)CC3)cc2-c2nc(C)nc(N)n2)cc1F ?
Key: 1

Exercise: Would you mind telling me which call this test gave COCCN1CCN(Cc2ccc(-c3n[nH]c4c3C(=O)c3c(NC(=O)NN5CCOCC5)cccc3-4)cc2)CC1 ?
Key: 1
